Below, each entry is listed alongside its reported pKi.
SYSTEM TESTED: IDE (Homo sapiens)
Construct: made in house; host or cells: bacteria
ASSAY REMARKS: IDE protease activity assay with FRET1 substrate
Assay type: biochemical
APPLIED CONDITIONS: Ki converted from IC50 with the Cheng-Prusoff equation
Where a SMILES comes first, the peptide text is derived from it. Bridges are numbered along the chain shown (N, C = ends).
Value format note: pKi is -log10 of concentration (mol/L); just state the number.

CC[C@H](C)[C@@H]1NC(=O)[C@H](CO)NC(=O)[C@H](Cc2c[nH]c3ccccc23)NC(=O)[C@H](Cc2c[nH]c3ccccc23)NC(=O)[C@H](CO)NC(=O)[C@@H](NC(=O)[C@H](C)N)CSSC[C@@H](C(=O)NCC(=O)O)NC(=O)[C@H](CC(C)C)NC(=O)[C@H](Cc2c[nH]cn2)NC1=O [Peptide C7C-1] (H-ACSWWSIHLCG-OH; disulfide 2-10) | 3.95
CC(C)[C@H](N)C(=O)N[C@@H](Cc1c[nH]cn1)C(=O)N[C@@H](Cc1c[nH]c2ccccc12)C(=O)N[C@@H](CC(=O)O)C(=O)N[C@@H](Cc1ccccc1)C(=O)N[C@@H](CCCNC(=N)N)C(=O)N[C@@H](CCC(N)=O)C(=O)N[C@@H](Cc1c[nH]c2ccccc12)C(=O)N[C@@H](Cc1c[nH]c2ccccc12)C(=O)N[C@@H](CCC(N)=O)C(=O)N1CCC[C@H]1C(=O)N[C@@H](CO)C(N)=O [Peptide P12-1A] (H-VHWDFRQWWQPS-NH2) | 5.30

Here's the next entry for you.
Problem: I would be grateful if you could share the reported pKi for CC(C)C[C@H](NC(=O)[C@H](CO)NC(=O)[C@@H](N)CCC(N)=O)C(=O)N1CCC[C@H]1C(=O)N[C@@H](Cc1c[nH]c2ccccc12)C(=O)N[C@@H](CS)C(=O)N[C@@H](Cc1ccc(O)cc1)C(=O)N1CCC[C@H]1C(N)=O [Peptide P12-3B] (H-QSLPWCYP-NH2) .
Result: 4.41

----------
Below, each entry is listed alongside its reported pKi.
SYSTEM TESTED: IDE (Homo sapiens, UniProt P14735)
Construct: made in house; host or cells: bacteria
Sequence (P14735 whole entry): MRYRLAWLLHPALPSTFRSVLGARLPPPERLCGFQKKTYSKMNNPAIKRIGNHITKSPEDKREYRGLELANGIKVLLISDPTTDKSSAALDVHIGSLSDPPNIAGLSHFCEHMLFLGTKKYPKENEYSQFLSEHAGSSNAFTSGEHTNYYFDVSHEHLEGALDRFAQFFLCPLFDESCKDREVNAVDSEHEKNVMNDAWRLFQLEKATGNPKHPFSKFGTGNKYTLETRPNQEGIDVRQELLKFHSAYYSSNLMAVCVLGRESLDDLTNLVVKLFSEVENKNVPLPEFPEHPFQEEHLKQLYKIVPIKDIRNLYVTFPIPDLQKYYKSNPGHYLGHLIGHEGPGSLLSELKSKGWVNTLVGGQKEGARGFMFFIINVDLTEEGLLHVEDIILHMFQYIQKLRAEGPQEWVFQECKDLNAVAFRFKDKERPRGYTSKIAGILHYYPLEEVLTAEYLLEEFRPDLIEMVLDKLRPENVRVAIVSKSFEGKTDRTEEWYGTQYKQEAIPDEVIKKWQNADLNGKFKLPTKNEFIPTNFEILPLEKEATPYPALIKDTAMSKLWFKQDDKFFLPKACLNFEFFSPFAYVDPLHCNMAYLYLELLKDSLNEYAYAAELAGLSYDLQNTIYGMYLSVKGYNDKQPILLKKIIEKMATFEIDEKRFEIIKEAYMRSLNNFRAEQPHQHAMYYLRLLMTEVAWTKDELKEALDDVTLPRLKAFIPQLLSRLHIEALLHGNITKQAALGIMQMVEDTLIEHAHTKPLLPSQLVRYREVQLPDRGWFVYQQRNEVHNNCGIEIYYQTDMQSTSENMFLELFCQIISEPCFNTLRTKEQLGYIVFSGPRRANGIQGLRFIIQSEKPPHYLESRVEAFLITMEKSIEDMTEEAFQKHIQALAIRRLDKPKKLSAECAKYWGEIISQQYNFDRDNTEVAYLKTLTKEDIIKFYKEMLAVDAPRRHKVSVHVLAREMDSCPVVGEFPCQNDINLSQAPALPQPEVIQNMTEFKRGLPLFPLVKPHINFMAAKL
ASSAY REMARKS: IDE protease activity assay with FRET1 substrate
Format: biochemical
APPLIED CONDITIONS: Ki converted from IC50 with the Cheng-Prusoff equation
Where a SMILES comes first, the peptide text is derived from it. Bridges are numbered along the chain shown (N, C = ends).
Value format note: pKi is -log10 of concentration (mol/L); just state the number.

These recorded examples may help you get a feel for the data.
CC[C@H](C)[C@H](NC(=O)[C@@H]1CCCN1C(=O)[C@H](CO)NC(=O)[C@@H](N)Cc1c[nH]c2ccccc12)C(=O)N[C@@H](CO)C(=O)NCC(=O)N[C@@H](CCCCN)C(=O)N[C@@H](Cc1ccccc1)C(=O)N[C@@H](Cc1ccccc1)C(=O)N[C@@H](CCC(N)=O)C(=O)N[C@@H](CCCNC(=N)N)C(=O)N[C@@H](Cc1ccccc1)C(=O)O [Peptide P12-4] (H-WSPISGKFFQRF-OH) | 5.41
CC(C)[C@H](N)C(=O)N[C@@H](Cc1c[nH]cn1)C(=O)N[C@@H](Cc1c[nH]c2ccccc12)C(=O)N[C@@H](CC(=O)O)C(=O)N[C@@H](Cc1ccccc1)C(=O)N[C@@H](CCCNC(=N)N)C(=O)N[C@@H](CCC(N)=O)C(=O)N[C@@H](Cc1c[nH]c2ccccc12)C(N)=O [Peptide P12-1B] (H-VHWDFRQW-NH2) | 4.39
CC(C)[C@H](N)C(=O)N[C@@H](Cc1c[nH]cn1)C(=O)N[C@@H](Cc1c[nH]c2ccccc12)C(=O)N[C@@H](CC(=O)O)C(=O)N[C@@H](Cc1ccccc1)C(=O)N[C@@H](CCCNC(=N)N)C(=O)N[C@@H](CCC(N)=O)C(=O)N[C@@H](Cc1c[nH]c2ccccc12)C(=O)N[C@@H](Cc1c[nH]c2ccccc12)C(=O)N[C@@H](CCC(N)=O)C(=O)N1CCC[C@H]1C(=O)N[C@@H](CO)C(=O)O [Peptide P12-1] (H-VHWDFRQWWQPS-OH) | 5.11
CC(C)C[C@H](NC(=O)[C@H](CO)NC(=O)[C@@H](N)CCC(N)=O)C(=O)N1CCC[C@H]1C(=O)N[C@@H](Cc1c[nH]c2ccccc12)C(=O)N[C@H]1CSSC[C@@H](C(=O)N[C@H](C(=O)N[C@H](C(N)=O)[C@@H](C)O)C(C)C)NC(=O)[C@H](Cc2c[nH]cn2)NC(=O)[C@@H]2CCCN2C(=O)[C@H](Cc2ccc(O)cc2)NC1=O [Peptide P12-3A] (H-QSLPWCYPHCVT-NH2; disulfide 6-10 (inferred)) | 5.00

Here's the next entry for you.
Problem: I would be grateful if you could share the reported pKi for CC[C@H](C)[C@H](NC(=O)[C@@H]1CCCN1C(=O)[C@H](CO)NC(=O)[C@@H](N)Cc1c[nH]c2ccccc12)C(=O)N[C@@H](CO)C(=O)NCC(=O)N[C@@H](CCCCN)C(=O)N[C@@H](Cc1ccccc1)C(=O)N[C@@H](Cc1ccccc1)C(=O)N[C@@H](CCC(N)=O)C(=O)N[C@@H](CCCNC(=N)N)C(=O)N[C@@H](Cc1ccccc1)C(N)=O [Peptide P12-4A] (H-WSPISGKFFQRF-NH2) .
Result: 5.38
